Study system: T1, human IL4Rα expressed on 293F-IL4Rα cells (human, UniProt P24394 26-825)
T1 construct: whole, on cells; also called cell surface human IL4Rα
Method summary: flow cytometry, 293F-IL4Rα cells
Reported property: pEC50
For clarity, pEC50 is expressed as the negative log10 of concentration in mol/L.

Entry chimeric antibody C2C1A1A1 (antibody, human IgG4 S228P, kappa, V domains shown, Mouse variable domains on human IgG4/kappa; also called Chimeric C2C1A1A1; chC2C1A1A1) VH: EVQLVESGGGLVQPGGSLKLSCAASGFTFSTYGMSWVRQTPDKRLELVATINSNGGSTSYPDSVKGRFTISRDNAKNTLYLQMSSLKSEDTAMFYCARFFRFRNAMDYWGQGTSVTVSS VL: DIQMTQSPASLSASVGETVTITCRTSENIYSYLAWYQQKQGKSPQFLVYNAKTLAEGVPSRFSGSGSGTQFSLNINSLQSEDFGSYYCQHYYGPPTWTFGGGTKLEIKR : reported pEC50 = ?
9.48

Dear colleague, I am looking for the recorded pEC50 of the following binder: huB8G11F2B7G5E8-V14 (antibody, human IgG4 S228P, kappa, V domains shown, Humanized, human IgG4/kappa; also called huBSG11F2B7G5E8-V14) VH: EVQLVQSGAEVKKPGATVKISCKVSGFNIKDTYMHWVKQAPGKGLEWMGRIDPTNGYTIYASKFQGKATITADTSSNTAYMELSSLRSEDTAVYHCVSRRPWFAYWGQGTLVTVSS VL: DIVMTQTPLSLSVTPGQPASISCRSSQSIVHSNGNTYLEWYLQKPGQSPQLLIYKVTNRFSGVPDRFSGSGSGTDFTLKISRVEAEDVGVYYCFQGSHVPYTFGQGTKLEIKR
9.28

Quick one: pEC50 for huB8G11F2B7G5E8-V2 (antibody, human IgG4 S228P, kappa, V domains shown, Humanized, human IgG4/kappa; also called huBSG11F2B7G5E8-V2) VH: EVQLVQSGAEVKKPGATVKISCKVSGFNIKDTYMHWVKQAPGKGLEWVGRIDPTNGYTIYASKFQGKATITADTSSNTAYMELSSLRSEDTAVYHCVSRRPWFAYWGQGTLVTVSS VL: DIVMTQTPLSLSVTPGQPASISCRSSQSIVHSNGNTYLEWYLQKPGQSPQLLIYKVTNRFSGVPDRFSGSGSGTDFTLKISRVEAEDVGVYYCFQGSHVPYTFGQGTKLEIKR ?
9.37

Quick one: pEC50 of huC2C1A1A1-V14 (antibody, human IgG4 S228P, kappa, V domains shown, Humanized, human IgG4/kappa) VH: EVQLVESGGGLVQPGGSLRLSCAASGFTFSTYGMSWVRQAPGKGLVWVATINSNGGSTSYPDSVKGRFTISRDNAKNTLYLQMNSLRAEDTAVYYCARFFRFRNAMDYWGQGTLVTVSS VL: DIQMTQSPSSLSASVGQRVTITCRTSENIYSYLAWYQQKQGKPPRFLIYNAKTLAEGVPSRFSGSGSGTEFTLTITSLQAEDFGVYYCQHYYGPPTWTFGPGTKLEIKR ?
9.41

Looking for the measured pEC50 of huC2C1A1A1-V15 (antibody, human IgG4, V domains shown, Humanized, human IgG4/kappa) VH: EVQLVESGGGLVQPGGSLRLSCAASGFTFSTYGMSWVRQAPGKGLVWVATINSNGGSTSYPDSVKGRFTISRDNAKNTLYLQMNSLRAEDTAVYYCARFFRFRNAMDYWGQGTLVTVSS VL: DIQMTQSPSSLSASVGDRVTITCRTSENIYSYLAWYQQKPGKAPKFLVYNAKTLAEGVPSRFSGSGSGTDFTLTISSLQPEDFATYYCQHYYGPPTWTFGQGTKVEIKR , can you help?
9.51
